System: Enterococcus faecium OC 3312 vancomycin resistant
Assay: MIC, microdilution broth method (NCCLS), strain A
Details: read-out: MIC A Strain
Overview of recorded MIC for various compounds

COMPOUND: CO[C@H]1/C=C/O[C@@]2(C)Oc3c(C)c(O)c4c(O)c(c(CCNCc5ccc(-c6cccnn6)cc5)c(O)c4c3C2=O)NC(=O)/C(C)=C\C=C\[C@H](C)[C@H](O)[C@@H](C)[C@@H](O)[C@@H](C)[C@H](OC(C)=O)[C@@H]1C [Compound 15]
TESTED_TARGET: Enterococcus faecium OC 3312 vancomycin resistant
MIC / µg/mL: 1

COMPOUND: CO[C@H]1/C=C/O[C@@]2(C)Oc3c(C)c(O)c4c(O)c(c(CCN5CCCCC5)c(O)c4c3C2=O)NC(=O)/C(C)=C\C=C\[C@H](C)[C@H](O)[C@@H](C)[C@@H](O)[C@@H](C)[C@H](OC(C)=O)[C@@H]1C [Compound 11]
TESTED_TARGET: Enterococcus faecium OC 3312 vancomycin resistant
MIC / µg/mL: 0.25

COMPOUND: CO[C@H]1/C=C/O[C@@]2(C)Oc3c(C)c(O)c4c(O)c(c(CCN(C)C)c(O)c4c3C2=O)NC(=O)/C(C)=C\C=C\[C@H](C)[C@H](O)[C@@H](C)[C@@H](O)[C@@H](C)[C@H](OC(C)=O)[C@@H]1C [Compound 10]
TESTED_TARGET: Enterococcus faecium OC 3312 vancomycin resistant
MIC / µg/mL: 0.25

COMPOUND: CO[C@H]1/C=C/O[C@@]2(C)Oc3c(C)c(O)c4c(O)c(c([C@H](O)C[N+](=O)[O-])c(O)c4c3C2=O)NC(=O)/C(C)=C\C=C\[C@H](C)[C@H](O)[C@@H](C)[C@@H](O)[C@@H](C)[C@H](OC(C)=O)[C@@H]1C (single isomer, unassigned) [Compound 5]
TESTED_TARGET: Enterococcus faecium OC 3312 vancomycin resistant
MIC / µg/mL: 8

COMPOUND: CO[C@H]1/C=C/O[C@@]2(C)Oc3c(C)c(O)c4c(O)c(c(CCNCc5ccc(-n6cccn6)cc5)c(O)c4c3C2=O)NC(=O)/C(C)=C\C=C\[C@H](C)[C@H](O)[C@@H](C)[C@@H](O)[C@@H](C)[C@H](OC(C)=O)[C@@H]1C [Compound 13]
TESTED_TARGET: Enterococcus faecium OC 3312 vancomycin resistant
MIC / µg/mL: 0.5
